These data points were gathered from the supplement of paper PMC3334620.

# Tested target: Vhr1 (UniProt P40522)
# Sequence: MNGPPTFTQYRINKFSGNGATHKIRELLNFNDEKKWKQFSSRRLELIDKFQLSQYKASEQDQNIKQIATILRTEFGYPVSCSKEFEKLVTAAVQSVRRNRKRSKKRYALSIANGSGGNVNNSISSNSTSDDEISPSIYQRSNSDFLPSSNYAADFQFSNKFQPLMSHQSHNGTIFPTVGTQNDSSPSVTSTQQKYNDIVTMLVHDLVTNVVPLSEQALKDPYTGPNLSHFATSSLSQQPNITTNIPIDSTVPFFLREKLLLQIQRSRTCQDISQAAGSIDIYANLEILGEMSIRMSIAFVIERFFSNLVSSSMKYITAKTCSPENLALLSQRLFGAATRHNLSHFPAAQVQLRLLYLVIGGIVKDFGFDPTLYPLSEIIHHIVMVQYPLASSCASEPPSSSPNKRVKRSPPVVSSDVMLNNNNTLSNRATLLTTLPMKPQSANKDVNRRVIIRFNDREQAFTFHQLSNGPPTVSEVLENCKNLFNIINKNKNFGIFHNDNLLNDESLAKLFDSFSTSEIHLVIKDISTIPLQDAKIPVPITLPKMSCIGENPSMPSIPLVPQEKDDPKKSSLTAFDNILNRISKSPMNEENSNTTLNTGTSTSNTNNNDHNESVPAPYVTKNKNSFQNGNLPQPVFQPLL
# Method: PBM E-score (8-mer binding enrichment) (E-score (-0.5 to 0.5)); higher = stronger / more preferred TF binding
# Run conditions: protein concentration: 200 nM; construct: GST-full length
In all, about 33,000 sequences were measured (“E-score (-0.5 to 0.5)”: median about -0.012, highest 2% from about 0.27 on). This is one part of a sample in which the highest values are shown more often than they occur.
The label depends only on PBM E-score: Met if it is at least 0.2, Not met if it is smaller.

See these solved cases before continuing.
>  <Biopolymer sequence>
ACCTGCCC

>  <Class label>
Not met

$$$$
>  <Biopolymer sequence>
CAGATCAG

>  <Class label>
Not met

$$$$
>  <Biopolymer sequence>
ACCGCGCG

>  <Class label>
Met

$$$$

## Task Please tell me: is the sequence TATAAGCA at or over 0.2 in terms of PBM E-score?
## Result Not met

## Task Please tell me: is the sequence AGACTACT at or over 0.2 in terms of PBM E-score?
## Result Met

## Task Please tell me: is the sequence ACCGCGGT at or over 0.2 in terms of PBM E-score?
## Result Not met

## Task Please tell me: is the sequence CATGAGAC at or over 0.2 in terms of PBM E-score?
## Result Met

## Task Please tell me: is the sequence ACCCATAT at or over 0.2 in terms of PBM E-score?
## Result Met

###

# Tested target: Vhr1 (UniProt P40522)
# Sequence: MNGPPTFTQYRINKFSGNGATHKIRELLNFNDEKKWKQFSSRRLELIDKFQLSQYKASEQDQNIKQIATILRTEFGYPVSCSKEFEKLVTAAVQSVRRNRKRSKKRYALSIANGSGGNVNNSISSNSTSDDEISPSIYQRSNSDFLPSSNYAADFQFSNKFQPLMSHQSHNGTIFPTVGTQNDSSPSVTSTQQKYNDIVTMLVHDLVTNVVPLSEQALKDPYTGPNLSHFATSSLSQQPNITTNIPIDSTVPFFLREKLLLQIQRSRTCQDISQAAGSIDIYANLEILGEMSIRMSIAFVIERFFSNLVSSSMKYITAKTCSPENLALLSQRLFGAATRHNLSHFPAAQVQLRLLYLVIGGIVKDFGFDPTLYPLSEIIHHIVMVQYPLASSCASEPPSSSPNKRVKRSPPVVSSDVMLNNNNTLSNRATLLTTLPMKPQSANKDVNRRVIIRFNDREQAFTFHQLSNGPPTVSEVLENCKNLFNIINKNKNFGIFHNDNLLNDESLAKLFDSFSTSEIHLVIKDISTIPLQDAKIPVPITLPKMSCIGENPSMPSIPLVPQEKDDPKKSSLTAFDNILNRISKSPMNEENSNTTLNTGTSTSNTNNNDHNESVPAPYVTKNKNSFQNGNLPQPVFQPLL
# Method: PBM E-score (8-mer binding enrichment) (E-score (-0.5 to 0.5)); higher = stronger / more preferred TF binding
# Run conditions: protein concentration: 200 nM; construct: GST-full length
In all, about 33,000 sequences were measured (“E-score (-0.5 to 0.5)”: median about -0.012, highest 2% from about 0.27 on). Only a selection was taken, and the highest values are over-represented in it overall.
The label depends only on PBM E-score: yes if it is at least 0.01, no if it is smaller.

See these solved cases before continuing.
>  <Biopolymer sequence>
CTCATATC

>  <Class label>
yes

$$$$
>  <Biopolymer sequence>
AAGAAAGT

>  <Class label>
no

$$$$
>  <Biopolymer sequence>
CATGTCTC

>  <Class label>
yes

$$$$
>  <Biopolymer sequence>
CAAAGTTC

>  <Class label>
no

$$$$
>  <Biopolymer sequence>
AGTCTGCC

>  <Class label>
yes

$$$$

## Task Please tell me: is the sequence CACTCACC at or over 0.01 in terms of PBM E-score?
## Result yes

## Task Please tell me: is the sequence AAATCACG at or over 0.01 in terms of PBM E-score?
## Result yes

###

# Tested target: Vhr1 (UniProt P40522)
# Sequence: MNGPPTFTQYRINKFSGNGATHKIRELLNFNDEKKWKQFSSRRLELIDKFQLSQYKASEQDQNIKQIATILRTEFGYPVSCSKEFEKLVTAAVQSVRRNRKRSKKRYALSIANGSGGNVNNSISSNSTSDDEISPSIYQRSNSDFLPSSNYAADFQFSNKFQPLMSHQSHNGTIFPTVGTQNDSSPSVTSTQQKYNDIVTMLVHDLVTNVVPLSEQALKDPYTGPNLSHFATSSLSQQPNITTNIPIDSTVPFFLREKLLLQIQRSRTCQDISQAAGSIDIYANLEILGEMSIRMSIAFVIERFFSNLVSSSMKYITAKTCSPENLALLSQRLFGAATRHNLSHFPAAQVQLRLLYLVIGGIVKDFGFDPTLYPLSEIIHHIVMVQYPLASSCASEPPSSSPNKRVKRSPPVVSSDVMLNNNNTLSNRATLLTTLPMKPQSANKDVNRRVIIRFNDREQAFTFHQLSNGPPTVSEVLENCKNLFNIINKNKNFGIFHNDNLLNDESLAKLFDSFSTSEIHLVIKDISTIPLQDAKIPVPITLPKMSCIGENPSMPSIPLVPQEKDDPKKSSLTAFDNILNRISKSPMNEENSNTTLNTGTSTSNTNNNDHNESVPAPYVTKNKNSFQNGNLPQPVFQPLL
# Method: PBM E-score (8-mer binding enrichment) (E-score (-0.5 to 0.5)); higher = stronger / more preferred TF binding
# Run conditions: protein concentration: 200 nM; construct: GST-full length
In all, about 33,000 sequences were measured (“E-score (-0.5 to 0.5)”: median about -0.012, highest 2% from about 0.27 on). Shown is part of a subset that was picked to be rich in the highest values.
Result type: PBM E-score

# annotated cases, reported PBM E-score shown
>  <Biopolymer sequence>
CACGACTA

>  <Experimental result>
0.209

$$$$
>  <Biopolymer sequence>
ATGACGCG

>  <Experimental result>
0.162

$$$$
>  <Biopolymer sequence>
ACGCGCGC

>  <Experimental result>
0.107

$$$$

Answer for every listed entry: what is its PBM E-score? The entries follow.
1. CGTCATAG
2. CTATGATC
3. ACTCAATG
4. GATCAACA

## Result
-0.155
0.112
0.159
-0.0766

Answer for every listed entry: what is its PBM E-score? The entries follow.
1. TCACCCCA
2. CACGAATC

## Result
1: 0.305; 2: 0.288

###

# Tested target: Vhr1 (UniProt P40522)
# Sequence: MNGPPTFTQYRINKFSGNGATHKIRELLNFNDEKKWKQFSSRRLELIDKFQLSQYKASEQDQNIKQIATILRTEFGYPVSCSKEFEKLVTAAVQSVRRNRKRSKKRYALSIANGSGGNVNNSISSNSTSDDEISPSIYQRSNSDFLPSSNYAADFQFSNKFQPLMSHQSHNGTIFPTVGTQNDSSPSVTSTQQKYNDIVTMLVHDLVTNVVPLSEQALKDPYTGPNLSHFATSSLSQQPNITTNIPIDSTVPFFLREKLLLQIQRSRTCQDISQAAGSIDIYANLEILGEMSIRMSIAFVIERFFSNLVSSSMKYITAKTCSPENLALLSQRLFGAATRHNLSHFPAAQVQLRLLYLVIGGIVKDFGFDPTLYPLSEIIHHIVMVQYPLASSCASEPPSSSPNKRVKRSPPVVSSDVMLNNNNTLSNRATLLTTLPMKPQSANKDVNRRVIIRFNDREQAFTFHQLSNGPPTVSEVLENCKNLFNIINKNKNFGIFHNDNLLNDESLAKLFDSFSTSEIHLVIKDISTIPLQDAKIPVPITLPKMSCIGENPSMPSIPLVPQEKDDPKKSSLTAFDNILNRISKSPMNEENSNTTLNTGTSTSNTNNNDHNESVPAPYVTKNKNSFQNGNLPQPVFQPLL
# Method: PBM E-score (8-mer binding enrichment) (E-score (-0.5 to 0.5)); higher = stronger / more preferred TF binding
# Run conditions: protein concentration: 200 nM; construct: GST-full length
Over roughly 33,000 sequences, “E-score (-0.5 to 0.5)” has its median near -0.012; the highest 2% begin near 0.27. What follows is part of a selection rich in the highest values, with near analogues and random picks from the rest.
Hi there, I'd appreciate the recorded PBM E-score for every entry that follows.
Answers are plain numbers.

>  <Biopolymer sequence>
CGCCACGA

>  <PBM E-score>
-0.0781

$$$$
>  <Biopolymer sequence>
CTTGAGTC

>  <PBM E-score>
0.333

$$$$
>  <Biopolymer sequence>
AAACACTA

>  <PBM E-score>
0.0776

$$$$
>  <Biopolymer sequence>
ACGACCCT

>  <PBM E-score>
-0.139

$$$$
>  <Biopolymer sequence>
ACATCCCG

>  <PBM E-score>
0.231

$$$$

Answer for every listed entry: what is its PBM E-score? The entries follow.
1. CGGAGTGC
2. ATATTCTA
3. CTTGAGTA
4. GTTAACGA
5. AGAGGCTG
6. ACTAGGCT

## Result
[0.139, 0.122, 0.0408, -0.043, -0.116, 0.154]

Answer for every listed entry: what is its PBM E-score? The entries follow.
1. CAGTCGGA
2. ATGTCTAG
3. AGTCATTG
4. CAAGCAAG

## Result
1: 0.0502; 2: 0.12; 3: 0.389; 4: -0.0582

Answer for every listed entry: what is its PBM E-score? The entries follow.
1. ACTCATTC
2. GGTCATTA
3. ATTCATTG
4. TATCACCA
5. CAGTCGTA

## Result
1: 0.367; 2: -0.0362; 3: 0.0738; 4: 0.0885; 5: 0.132

Answer for every listed entry: what is its PBM E-score? The entries follow.
1. GAGGCGGC
2. CGGAGTAC

## Result
1. 0.0803
2. 0.0632
